B1: Caulobacter ParB omega fusion; a variant is named by its letters at X, in order, B8GW30 (parent)
chain: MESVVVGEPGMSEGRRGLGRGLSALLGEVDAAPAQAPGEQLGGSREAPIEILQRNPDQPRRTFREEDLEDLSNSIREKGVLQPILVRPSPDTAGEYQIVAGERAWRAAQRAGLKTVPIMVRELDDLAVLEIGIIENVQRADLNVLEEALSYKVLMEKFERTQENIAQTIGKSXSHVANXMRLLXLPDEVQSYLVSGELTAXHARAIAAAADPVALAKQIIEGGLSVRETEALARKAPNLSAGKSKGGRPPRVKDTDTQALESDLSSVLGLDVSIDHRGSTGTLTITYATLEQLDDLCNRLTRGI

- Variants of: B1
- ASSAY EXPLANATION: one-hybrid fitness for binding parS DNA (scaled: cognate 1, non-cognate 0); higher = stronger binding
- CONDITION CONTEXT: with parS DNA site
The full ranking holds about 81,000 sequences; the median of “one-hybrid fitness for binding parS DNA” is about -0.17, and the highest 2% start at about 0.51. Only a selection was taken, and the highest values are over-represented in it overall.
MEASUREMENT LABEL: one-hybrid fitness for binding parS DNA

RASS: 1
LSGR: ≤ 0.2
FMSD: ≤ 0.2
RHQG: 0.973
REQG: ≤ 0.2

(Q) Indicate the recorded one-hybrid fitness for binding parS DNA value for this variant: `GRRY`
(A) ≤ 0.2

(Q) Indicate the recorded one-hybrid fitness for binding parS DNA value for this variant: `ASRA`
(A) ≤ 0.2

(Q) Indicate the recorded one-hybrid fitness for binding parS DNA value for this variant: `CVSN`
(A) ≤ 0.2

(Q) Indicate the recorded one-hybrid fitness for binding parS DNA value for this variant: `RYMT`
(A) 0.887

(Q) Indicate the recorded one-hybrid fitness for binding parS DNA value for this variant: `RHNF`
(A) ≤ 0.2

Source listed as a collection of fitness landscapes (doi:10.1016/j.celrep.2020.107928).
